Recorded Activity, one value per entry.
# Tested on: Oryza sativa
# measurement-protocol: Effect on Oryza sativa (rice) assessed as growth rate at 1 uM relative to control
# Assay type: organism-based
# assay-context: in vivo
// return numeric value only (unit: %, not printed)

Would you please give the reported Activity of `COc1cccc(NC(=O)N[C@H](C)c2ccccc2)c1` with Oryza sativa?
92

Would you please give the reported Activity of `C[C@H](NC(=O)Nc1cccc(Cl)c1Cl)c1ccccc1` with Oryza sativa?
100

----------
Recorded Activity, one value per entry.
# System: Oryza sativa
# measurement-protocol: Effect on Oryza sativa (rice) assessed as growth rate at 1 uM relative to control
# Assay type: organism-based
# assay-context: in vivo
// return numeric value only (unit: %, not printed)

Guide cases for Activity, answers given:
[[record]]
compound = "CCCCCCc1ccc(NC(=O)N[C@@H](C)c2ccccc2)cc1"
unit_info = "%"
measurement = 100

[[record]]
compound = "C[C@@H](NC(=O)Nc1ccc(F)c(F)c1)c1ccccc1"
unit_info = "%"
measurement = 99

[[record]]
compound = "C[C@H](NC(=O)Nc1ccc(Cl)cc1Cl)c1ccccc1"
unit_info = "%"
measurement = 100

[[record]]
compound = "C[C@H](NC(=O)Nc1cccc(C(F)(F)F)c1)c1ccccc1"
unit_info = "%"
measurement = 93

[[record]]
compound = "C[C@@H](NC(=O)Nc1cccc(Cl)c1)c1ccccc1"
unit_info = "%"
measurement = 91


Look up and state reported Activity for `C[C@@H](NC(=O)Nc1ccc(C(C)(C)C)cc1)c1ccccc1`
88

Look up and state reported Activity for `CCc1cccc(NC(=O)N[C@@H](C)c2ccccc2)c1`
94

Look up and state reported Activity for `C[C@H](NC(=O)Nc1c(Cl)cccc1Cl)c1ccccc1`
99

Look up and state reported Activity for `C[C@H](NC(=O)Nc1cccc(F)c1F)c1ccccc1`
100

Look up and state reported Activity for `Cc1cccc(NC(=O)N[C@@H](C)c2ccccc2)c1`
100

Look up and state reported Activity for `C[C@H](NC(=O)Nc1cc(Cl)ccc1Cl)c1ccccc1`
99

Look up and state reported Activity for `C[C@@H](NC(=O)Nc1ccc(C(F)(F)F)cc1)c1ccccc1`
89

----------
# System: Oryza sativa
# measurement-protocol: Effect on Oryza sativa (rice) assessed as growth rate at 1 uM relative to control
# Format: organism-based
# assay-context: in vivo
experimental-readout: Activity (%)
// return numeric value only (unit: %, not printed)

[[record]]
molecule = "CCc1ccc(NC(=O)N[C@H](C)c2ccccc2)cc1"
experimental_readout = "Activity"
measurement = 47

[[record]]
molecule = "CCCCCCCc1ccc(NC(=O)N[C@@H](C)c2ccccc2)cc1"
experimental_readout = "Activity"
measurement = 99

[[record]]
molecule = "C[C@@H](NC(=O)Nc1cc(F)ccc1F)c1ccccc1"
experimental_readout = "Activity"
measurement = 100

[[record]]
molecule = "CCc1cccc(NC(=O)N[C@H](C)c2ccccc2)c1"
experimental_readout = "Activity"
measurement = 71

[[record]]
molecule = "C[C@H](NC(=O)Nc1ccccc1C(C)(C)C)c1ccccc1"
experimental_readout = "Activity"
measurement = 99

[[record]]
molecule = "CCCc1ccc(NC(=O)N[C@@H](C)c2ccccc2)cc1"
experimental_readout = "Activity"
measurement = 76

[[record]]
molecule = "CCCCCc1ccc(NC(=O)N[C@H](C)c2ccccc2)cc1"
experimental_readout = "Activity"
measurement = 101

[[record]]
molecule = "C[C@@H](NC(=O)Nc1ccccc1I)c1ccccc1"
experimental_readout = "Activity"
measurement = 100

[[record]]
molecule = "Cc1ccc(NC(=O)N[C@@H](C)c2ccccc2)cc1"
experimental_readout = "Activity"
measurement = 99

[[record]]
molecule = "CCCCc1ccc(NC(=O)N[C@@H](C)c2ccccc2)cc1"
experimental_readout = "Activity"
measurement = 72


Look up and state reported Activity for Cc1ccc(NC(=O)NC(C)(C)c2ccccc2)cc1 [DAIMURON]
89

Look up and state reported Activity for `Cc1ccccc1NC(=O)N[C@H](C)c1ccccc1`
100

Look up and state reported Activity for `C[C@H](NC(=O)Nc1ccccc1Cl)c1ccccc1`
104

Look up and state reported Activity for `C[C@@H](NC(=O)Nc1ccc(F)cc1F)c1ccccc1`
100

Look up and state reported Activity for `C[C@H](NC(=O)Nc1cc(C(F)(F)F)ccc1F)c1ccccc1`
89
